experimental_details: Human HepG2 cell viability assay in 384 well format
Type: toxicity, cell-based
Set-up: dose 125 nL, time 70.5 hour; concentration not given beside the values
run_conditions: HepG2 cells, read-out: Inhibition
A collection of molecules and their measured cytotoxicity at 70.5 h
readout: cytotoxicity at 70.5 h (%)

- molecule: "CC(C)c1nnc2n1CCN(C(=O)c1ccc(Cn3cccc3)cc1)C2"
  value_units: "%"
  measured: -7.11
- molecule: "Cc1cc(-c2nn(C)c(Cl)c2CN2CCCCC(N)C2)no1 (stereo unspecified)"
  value_units: "%"
  measured: -1.48
- molecule: "CC1(c2cc[nH]n2)CCN(C(=O)c2ccc(Cl)cc2)CC1"
  value_units: "%"
  measured: -4.57
- molecule: "Cc1nnc(Nc2cccc(C3CCCN(Cc4ncc[nH]4)C3)n2)s1 (stereo unspecified)"
  value_units: "%"
  measured: 14
- molecule: "CC(Oc1cc(Cl)cc(Cl)c1)C(=O)NCCC(=O)N(C)C (stereo unspecified)"
  value_units: "%"
  measured: -6.44
- molecule: "CCSc1ncc(CN2C[C@H]3CC[C@@H]2CN(C2CCOCC2)C3)cn1"
  value_units: "%"
  measured: -7.51
